Please provide measured Anti-CD28 Fab signal (phage binding ELISA) for the entries that follow.
assay_system: Anti-CD28 Fab (SEQ ID NOs: 696, 697)
Sequence (VH, as listed by the source, chain 1 of 2): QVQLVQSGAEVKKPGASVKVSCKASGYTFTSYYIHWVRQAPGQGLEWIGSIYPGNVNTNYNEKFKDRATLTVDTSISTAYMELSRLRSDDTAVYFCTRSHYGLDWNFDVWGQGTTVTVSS
Sequence (VL, as listed by the source, chain 2 of 2): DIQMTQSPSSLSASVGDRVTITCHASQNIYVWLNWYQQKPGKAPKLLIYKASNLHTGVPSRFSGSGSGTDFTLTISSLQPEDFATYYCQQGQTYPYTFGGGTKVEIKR
assay_procedure: phage binding ELISA; biotinylated anti-CD28 Fab on neutravidin plate, clonal phage, anti-M13 HRP detection
Give only the figure.

stdin: Please give the measured Anti-CD28 Fab signal (phage binding ELISA) for this binder: TCSAGATYSWPYCL (Tested as clonal phage supernatant) [Phage-1633 (peptide-92 library clone, SEQ ID NO: 1929)]
stdout: 1.22

stdin: Look up Anti-CD28 Fab signal (phage binding ELISA): TCAAGANYSWPACL (Tested as clonal phage supernatant) [Phage-1646 (peptide-92 library clone, SEQ ID NO: 1942)]
stdout: 1.14

stdin: Form field: reported Anti-CD28 Fab signal (phage binding ELISA) of SCSAGAGWAWPMCF (Tested as clonal phage supernatant) [Phage-1643 (peptide-92 library clone, SEQ ID NO: 1939)]
stdout: 1.16

stdin: Return reported Anti-CD28 Fab signal (phage binding ELISA); argument: SCAAGFDYGWPMCL (Tested as clonal phage supernatant) [Phage-1644 (peptide-92 library clone, SEQ ID NO: 1940)]
stdout: 1.16

The reported numbers originate from patent US20260242478A1.
